assayed target: Polyadenylate-binding protein 1 (Homo sapiens)
Sequence (P11940 whole entry, the tested form may be a part): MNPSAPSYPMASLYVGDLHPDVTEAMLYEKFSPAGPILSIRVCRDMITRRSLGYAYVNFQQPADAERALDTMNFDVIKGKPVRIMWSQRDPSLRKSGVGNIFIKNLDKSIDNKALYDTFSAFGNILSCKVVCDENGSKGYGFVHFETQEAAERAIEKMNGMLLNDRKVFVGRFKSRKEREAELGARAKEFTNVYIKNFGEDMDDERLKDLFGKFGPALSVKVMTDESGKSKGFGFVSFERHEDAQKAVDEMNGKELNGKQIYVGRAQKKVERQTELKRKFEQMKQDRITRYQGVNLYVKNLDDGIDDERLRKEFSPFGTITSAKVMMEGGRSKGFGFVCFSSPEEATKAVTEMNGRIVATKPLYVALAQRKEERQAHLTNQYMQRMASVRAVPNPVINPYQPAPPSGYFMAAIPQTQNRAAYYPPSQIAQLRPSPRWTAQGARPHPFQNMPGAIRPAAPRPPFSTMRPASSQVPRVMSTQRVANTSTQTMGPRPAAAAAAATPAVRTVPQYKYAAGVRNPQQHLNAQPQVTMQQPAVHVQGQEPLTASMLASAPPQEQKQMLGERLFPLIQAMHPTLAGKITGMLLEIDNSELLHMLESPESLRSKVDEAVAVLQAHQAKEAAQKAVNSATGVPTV
assay text: MLLE domain peptide-binding blockers, IC50 – biochemical, fluorescence polarization, FITC-PAM2 peptide, dose response (AID 602259)
Type: functional
condition details: read-out: IC50_Mean
The source made the active and inactive calls. Cut-off read from the data, not from the text of the source: active = IC50 of 20 µM or less and inactive = more.
observation type: IC50

{"compound": "O=C(CN1C(=O)S/C(=C\\c2ccccc2)C1=O)NCCCn1ccnc1", "IC50": "> 66 µM (inactive)"}
{"compound": "COc1ccc(NC(S)=Nc2cccc(Cl)c2)cc1OC", "IC50": "> 66 µM (inactive)"}

INPUT: Query (compound): CCc1cc(C(=O)c2ccccc2OC)c(N)s1 ; field requested: IC50
OUTPUT: > 66 µM (inactive)
